# MEASURED ON: mutEGFR (D770_N771insSVD) (Homo sapiens, UniProt P00533, DUP768-770)
# Construct: GST-EGFR #3 (SVD between D770 and N771); made in house; host or cells: Sf9 insect cells (baculovirus)
# Sequence (P00533 with tags, fused parts or gaps DUP768-770): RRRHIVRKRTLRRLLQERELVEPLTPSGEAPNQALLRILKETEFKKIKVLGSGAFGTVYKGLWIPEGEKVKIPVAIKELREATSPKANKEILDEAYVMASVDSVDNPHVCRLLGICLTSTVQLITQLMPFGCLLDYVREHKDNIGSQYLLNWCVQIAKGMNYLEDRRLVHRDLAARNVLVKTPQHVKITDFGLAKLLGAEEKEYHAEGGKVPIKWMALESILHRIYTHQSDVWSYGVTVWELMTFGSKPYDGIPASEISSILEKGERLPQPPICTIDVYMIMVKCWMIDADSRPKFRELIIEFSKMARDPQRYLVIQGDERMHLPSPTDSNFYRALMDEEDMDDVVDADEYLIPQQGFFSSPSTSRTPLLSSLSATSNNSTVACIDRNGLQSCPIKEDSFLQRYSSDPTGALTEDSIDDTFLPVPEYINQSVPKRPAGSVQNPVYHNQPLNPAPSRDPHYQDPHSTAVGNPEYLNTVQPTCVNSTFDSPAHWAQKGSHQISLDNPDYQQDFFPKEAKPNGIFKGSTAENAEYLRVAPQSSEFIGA
# ASSAY EXPLANATION: Exon20-Mutant-EGFR (D770_N771insSVD) kinase assay (TR-FRET)
# Assay type: biochemical
# EXPERIMENTAL CONDITIONS: mutEGFR (D770_N771insSVD) kinase assay IC50, Table 2a; D770_N771insSVD; 2 mM ATP
QUANTITY: pIC50
One number for each entry, as −log10 of the molar value.

>  <COMPOUND>
C=CC(=O)N1CCn2nc(-c3ccc(CC)cc3)c(-c3ccncc3)c2C1

>  <pIC50>
9.09

$$$$
>  <COMPOUND>
C=CC(=O)N1CCn2nc(-c3ccc(F)cc3)c(-c3ccnc(N)c3)c2C1

>  <pIC50>
9.07

$$$$
>  <COMPOUND>
Cc1c[nH]c2nccc(-c3c(-c4ccc(F)cc4)nn4c3CN(C(=O)/C=C/CN(C)C)[C@@H](C)C4)c12

>  <pIC50>
7.16

$$$$
>  <COMPOUND>
C=CC(=O)N1CCn2nc(-c3ccc(C)cc3F)c(-c3ccncc3)c2C1

>  <pIC50>
9.12

$$$$

Required: pIC50, one value per compound below.
1. C=CC(=O)N1CCn2nc(-c3ccc(Cl)cc3F)c(-c3ccnc(NC)c3)c2C1
2. C=CC(=O)N1Cc2c(-c3ccncc3)c(-c3ccc(F)cc3)nn2C(CC(=O)N(C)C)C1 (stereo not shown)
3. CN(C)C/C=C/C(=O)N1CCn2nc(-c3ccc(Cl)cc3F)c(-c3ccncc3)c2C1
4. C=CC(=O)N1CCn2nc(Nc3ccc(Cl)cc3F)c(-c3ccncc3)c2C1
5. C=CC(=O)N1Cc2c(-c3ccnc4[nH]cc(C)c34)c(-c3ccc(C(F)(F)F)cc3)nn2C[C@@H]1C
6. C=CC(=O)N1CCn2nc(Nc3ccc(OC)c(F)c3)c(-c3ccncc3)c2C1

Solution:
1: 9.00; 2: 7.85; 3: 8.90; 4: 7.39; 5: 7.11; 6: 5.69

For each of the items listed, what is its pIC50?
1. CN(C)C/C=C/C(=O)N1CCn2nc(-c3ccc(C(F)(F)F)cc3F)c(-c3ccncc3)c2C1
2. C=CC(=O)N1CCn2nc(-c3ccc(Cl)c(C#N)c3)c(-c3ccncc3)c2C1

Solution:
1. 8.98
2. 8.07

Give pIC50 for each of the items listed below.
1. O=C(/C=C/CN1CCCC1)N1CCn2nc(-c3ccc(Cl)cc3)c(-c3ccncc3)c2C1
2. C=CC(=O)N1CCn2nc(-c3ccc(F)c4ccoc34)c(-c3ccncc3)c2C1
3. COC/C=C/C(=O)N1CCn2nc(-c3ccc(F)cc3)c(-c3ccncc3)c2C1
4. COc1ccccc1-c1nn2c(c1-c1ccncc1)CN(C(=O)/C=C/CN(C)C)CC2

Solution:
[9.87, 8.83, 7.06, 7.15]

---

Kindly state IC50 for each of the entries shown.
# MEASURED ON: mutEGFR (D770_N771insNPG, T790) (Homo sapiens, UniProt P00533, INS770NPG/T790M)
# Construct: exact insNPG construct not described; in-house EGFR proteins were N-terminal GST fusions from baculovirus/insect cells (borders R669-A1210 given only for WT, insSVD, insASV)
# Sequence (P00533 with tags, fused parts or gaps INS770NPG/T790M limits assumed): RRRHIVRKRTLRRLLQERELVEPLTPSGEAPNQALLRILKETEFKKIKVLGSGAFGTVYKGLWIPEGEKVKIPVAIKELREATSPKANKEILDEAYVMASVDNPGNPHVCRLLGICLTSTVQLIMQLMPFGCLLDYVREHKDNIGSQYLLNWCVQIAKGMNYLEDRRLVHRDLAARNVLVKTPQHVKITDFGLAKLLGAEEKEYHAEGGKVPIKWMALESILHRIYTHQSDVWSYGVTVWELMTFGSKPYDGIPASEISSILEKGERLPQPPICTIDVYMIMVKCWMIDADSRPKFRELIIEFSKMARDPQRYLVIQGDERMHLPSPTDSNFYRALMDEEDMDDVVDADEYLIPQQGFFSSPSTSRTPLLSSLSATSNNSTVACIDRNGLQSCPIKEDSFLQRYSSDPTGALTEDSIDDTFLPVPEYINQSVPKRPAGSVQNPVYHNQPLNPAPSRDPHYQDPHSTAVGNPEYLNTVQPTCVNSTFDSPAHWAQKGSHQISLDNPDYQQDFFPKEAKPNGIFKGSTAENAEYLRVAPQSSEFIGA
# ASSAY EXPLANATION: mutEGFR (D770_N771insNPG, T790) kinase assay
# Assay type: biochemical
# EXPERIMENTAL CONDITIONS: Table 2a, D770_N771insNPG
Answers are plain numbers, in nM.

The following compounds have reported results that may help.
>  <COMPOUND>
Cc1cccc(-c2nn3c(c2-c2ccncc2)CN(C(=O)/C=C/CN(C)C)CC3)c1 [Example 157]

>  <MEASURED ON>
mutEGFR (D770_N771insNPG, T790) (Homo sapiens, UniProt P00533, INS770NPG/T790M)

>  <ASSAY VALUE>
1.77

$$$$
>  <COMPOUND>
C=CC(=O)N1CCn2nc(-c3ccc(Cl)c(C#N)c3)c(-c3ccncc3)c2C1 [Example 118]

>  <MEASURED ON>
mutEGFR (D770_N771insNPG, T790) (Homo sapiens, UniProt P00533, INS770NPG/T790M)

>  <ASSAY VALUE>
4.9

$$$$
>  <COMPOUND>
Cc1c[nH]c2nccc(-c3c(-c4ccc(F)cc4)nn4c3CN(C(=O)/C=C/CN(C)C)[C@H](C)C4)c12 [Example 269]

>  <MEASURED ON>
mutEGFR (D770_N771insNPG, T790) (Homo sapiens, UniProt P00533, INS770NPG/T790M)

>  <ASSAY VALUE>
38.2

$$$$
>  <COMPOUND>
C=C(F)C(=O)N1Cc2c(-c3ccncc3)c(-c3ccc(Cl)cc3F)nn2CC1C (racemic) [Example 237]

>  <MEASURED ON>
mutEGFR (D770_N771insNPG, T790) (Homo sapiens, UniProt P00533, INS770NPG/T790M)

>  <ASSAY VALUE>
9.96

$$$$
>  <COMPOUND>
C=CC(=O)N1CCn2nc(Nc3ccc(Cl)cc3F)c(-c3ccncc3)c2C1 [Example 95]

>  <MEASURED ON>
mutEGFR (D770_N771insNPG, T790) (Homo sapiens, UniProt P00533, INS770NPG/T790M)

>  <ASSAY VALUE>
99.5

$$$$
>  <COMPOUND>
C=CC(=O)N1CCn2nc(-c3ccc(Cl)cc3C)c(-c3ccncc3)c2C1 [Example 117]

>  <MEASURED ON>
mutEGFR (D770_N771insNPG, T790) (Homo sapiens, UniProt P00533, INS770NPG/T790M)

>  <ASSAY VALUE>
1.86

$$$$

Value sought for every listed compound: IC50.
1. C[C@H]1Cn2nc(-c3ccc(Cl)cc3)c(-c3ccncc3)c2CN1C(=O)/C=C/CN(C)C [Example 245]
2. CN(C)C/C=C/C(=O)N1CCn2nc(-c3ccc4[nH]ccc4c3)c(-c3ccncc3)c2C1 [Example 197]

Solution:
[0.262, 8.01]
